TARGET_DESC: adrenergic α1A receptor (Homo sapiens)
Sequence (P35348 1-466): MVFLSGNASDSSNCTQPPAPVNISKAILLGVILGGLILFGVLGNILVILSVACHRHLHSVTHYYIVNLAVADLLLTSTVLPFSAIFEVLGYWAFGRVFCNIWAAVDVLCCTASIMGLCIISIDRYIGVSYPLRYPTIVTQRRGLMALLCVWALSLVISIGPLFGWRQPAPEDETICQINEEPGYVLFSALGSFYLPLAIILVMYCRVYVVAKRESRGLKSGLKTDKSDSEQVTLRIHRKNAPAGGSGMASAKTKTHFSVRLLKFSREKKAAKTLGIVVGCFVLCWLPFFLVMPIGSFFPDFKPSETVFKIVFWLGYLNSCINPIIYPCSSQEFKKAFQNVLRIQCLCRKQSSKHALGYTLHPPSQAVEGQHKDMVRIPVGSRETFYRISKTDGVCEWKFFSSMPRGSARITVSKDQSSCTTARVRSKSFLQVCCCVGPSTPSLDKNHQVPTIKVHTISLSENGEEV
ASSAY_NAME: Cellular functional assay, adrenergic α1A receptor (agonism/antagonism)
Type: cell-based
TEST_CONDITIONS: read-out: α1A -antag. [%]
ASSAY_READOUT: inhibition at 1 µM (%)
Entry rule: numbers only, all in %.

# lookup: inhibition at 1 µM of `O=S(=O)(NCCCCN1CCN(c2cccc3[nH]ccc23)CC1)c1cc2ccc(Cl)cc2s1`
100

Fill in: inhibition at 1 µM of `O=S(=O)(NCCCCN1CCC(c2noc3cc(F)ccc23)CC1)c1cc2ccc(Cl)cc2s1` is ___
100

Look at this compound and give its reported inhibition at 1 µM. `O=S(=O)(NCCCCN1CCC(c2noc3cc(F)ccc23)CC1)c1ccc(Br)cc1`
100

Consider the additional compound presented here.
Given `O=S(=O)(NCCCN1CCC(c2noc3cc(F)ccc23)CC1)c1ccc2cc(Cl)ccc2c1` , state its recorded inhibition at 1 µM.
99
